assay: Cytotoxicity against human K562 cells assessed as reduction in cell viability at 50 uM incubated for 24 hrs by cell-titer glo assay relative to control; assay type: cell-based; conditions: read-out: INH
Measured Parameter: cytotoxicity at 24 h, 50 µM
Provide the measurement as a number trailed by its unit.

Known results for compounds:
[[record]]
compound_string = "Cc1[nH]c(/C=C2\\C(=O)Nc3ccc(F)cc32)c(C)c1C(=O)NCCN(C)C"
measured_parameter = "cytotoxicity at 24 h, 50 µM"
observed_value = "98%"

[[record]]
compound_string = "CCN(CC)CCNC(=O)c1c(C)[nH]c(/C=C2\\C(=O)Nc3ccc(CCNC(C)=O)cc32)c1C"
measured_parameter = "cytotoxicity at 24 h, 50 µM"
observed_value = "98%"


Next, consider the following compound.
If you can, please state the reported cytotoxicity at 24 h, 50 µM value of "CCN(CC)CCNC(=O)c1c(C)[nH]c(/C=C2\C(=O)Nc3cc(F)ccc32)c1C" . 98%

----------
Below, each of the compounds is paired with its reported EC50 value.
test system: K562; assay: Cytotoxicity against human K562 cells assessed as reduction in cell viability incubated for 24 hrs by cell-titer glo assay; type: cell-based; settings: K562, 24 h
Provide the measurement as a number trailed by its unit.

Known results for compounds:
[[record]]
compound_string = "CCN(CC)CCNC(=O)c1c(C)[nH]c(/C=C2\\C(=O)Nc3cc(Cl)ccc32)c1C"
observed_value = "3.83 µM"

[[record]]
compound_string = "CCN(CC)CCNC(=O)c1c(C)[nH]c(/C=C2\\C(=O)N(C)c3ccc(F)cc32)c1C"
observed_value = "11.8 µM"

[[record]]
compound_string = "CCN(CC)CCNC(=O)c1c(C)[nH]c(/C=C2\\C(=O)Nc3ccc(C#N)cc32)c1C"
observed_value = "19.9 µM"

[[record]]
compound_string = "CCN(CC)CCNC(=O)c1c(C)[nH]c(/C=C2\\C(=O)Nc3ccc(CCN=[N+]=[N-])cc32)c1C"
observed_value = "4.86 µM"

[[record]]
compound_string = "CCN(CC)CCNC(=O)c1c(C)[nH]c(/C=C2\\C(=O)Nc3ccc(CCC#N)cc32)c1C"
observed_value = "17.8 µM"


Field: EC50 (K562). Entry: "CCN(CC)CCCNC(=O)c1c(C)[nH]c(/C=C2\C(=O)Nc3ccc(F)cc32)c1C" 18 µM

Field: EC50 (K562). Entry: "CCNCCNC(=O)c1c(C)[nH]c(/C=C2\C(=O)Nc3ccc(F)cc32)c1C" 15.5 µM

----------
experiment: Cytotoxicity against human K562 cells assessed as reduction in cell viability at 50 uM incubated for 72 hrs by MTS assay relative to control; assay type: cell-based; conditions: read-out: INH
Measured Parameter: cytotoxicity at 72 h, 50 µM

[[record]]
compound_string = "CCN(CC)CCNC(=O)c1c(C)[nH]c(/C=C2\\C(=O)Nc3ccc(CCNC(C)=O)cc32)c1C"
measured_parameter = "cytotoxicity at 72 h, 50 µM"
observed_value = "64%"


Next, consider the following compound.
If you can, please state the reported cytotoxicity at 72 h, 50 µM value of "CCN(CC)CCNC(=O)c1c(C)[nH]c(/C=C2\C(=O)Nc3ccc(C#N)cc32)c1C" . 98%

----------
target: 5'-AMP-activated protein kinase catalytic subunit alpha-1 (Homo sapiens) (UniProt Q13131); assay: Inhibition of recombinant human His6-tagged AMPK alpha1 at 20 uM using ULight CRBtide as substrate incubated for 1 hr followed by substrate addition and measured after 1 hr by TR-FRET assay relative to control; details: time 2.0 hrs
Sequence (Q13131 whole entry, looked up): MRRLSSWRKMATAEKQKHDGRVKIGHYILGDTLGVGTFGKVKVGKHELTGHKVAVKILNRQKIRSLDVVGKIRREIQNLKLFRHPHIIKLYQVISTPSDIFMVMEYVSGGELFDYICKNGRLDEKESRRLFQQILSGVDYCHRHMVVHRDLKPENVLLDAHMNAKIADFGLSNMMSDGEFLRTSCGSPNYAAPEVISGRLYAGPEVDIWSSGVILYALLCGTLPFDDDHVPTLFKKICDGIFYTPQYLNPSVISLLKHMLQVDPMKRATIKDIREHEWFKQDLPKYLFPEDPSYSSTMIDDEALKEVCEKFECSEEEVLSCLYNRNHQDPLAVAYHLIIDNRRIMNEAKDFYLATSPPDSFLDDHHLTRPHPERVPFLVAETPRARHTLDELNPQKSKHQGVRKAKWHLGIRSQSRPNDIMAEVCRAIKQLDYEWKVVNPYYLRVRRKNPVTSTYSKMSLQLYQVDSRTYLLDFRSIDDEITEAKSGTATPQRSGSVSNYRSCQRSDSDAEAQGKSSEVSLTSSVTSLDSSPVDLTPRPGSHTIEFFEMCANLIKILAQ
Measured Parameter: inhibition
Provide the measurement as a number trailed by its unit.

Known results for molecules:
[[record]]
compound_string = "Cc1[nH]c(/C=C2\\C(=O)Nc3ccc(F)cc32)c(C)c1C(=O)O"
measured_parameter = "inhibition"
observed_value = "78%"

[[record]]
compound_string = "CCN(CC)CCNC(=O)c1c(C)[nH]c(/C=C2\\C(=O)Nc3cc(Br)ccc32)c1C"
measured_parameter = "inhibition"
observed_value = "89%"

[[record]]
compound_string = "CCCNC(=O)c1c(C)[nH]c(/C=C2\\C(=O)Nc3ccc(F)cc32)c1C"
measured_parameter = "inhibition"
observed_value = "30%"

[[record]]
compound_string = "CCc1ccc2c(c1)NC(=O)/C2=C\\c1[nH]c(C)c(C(=O)NCCN(CC)CC)c1C"
measured_parameter = "inhibition"
observed_value = "70%"


Next, consider the following molecule.
If you can, please state the reported inhibition value of "CCN(CC)CCNC(=O)c1c(C)[nH]c(/C=C2\C(=O)N(C)c3ccc(F)cc32)c1C" . 40%

----------
Below, each of the molecules is paired with its reported EC50 value.
system: K562; experiment: Cytotoxicity against human K562 cells assessed as reduction in cell viability incubated for 24 hrs by celltox-green assay; format: cell-based; conditions: K562, 24 h
Express it in µM; write the number only.

[[record]]
compound_string = "CCN(CC)CCNC(=O)c1c(C)[nH]c(/C=C2\\C(=O)Nc3cc(Cl)ccc32)c1C"
measurement_unit = "µM"
observed_value = 5.24

[[record]]
compound_string = "CCNCCNC(=O)c1c(C)[nH]c(/C=C2\\C(=O)Nc3ccc(F)cc32)c1C"
measurement_unit = "µM"
observed_value = 12.9


Next, consider the following molecule.
If you can, please state the reported EC50 value of "CCN(CC)CCNC(=O)c1c(C)[nH]c(/C=C2\C(=O)N(C)c3ccc(F)cc32)c1C" . 12.1

----------
biological target: 5'-AMP-activated protein kinase catalytic subunit alpha-2 (Homo sapiens) (UniProt P54646); assay: Inhibition of recombinant human His6-tagged AMPK alpha2 at 10 uM using ULight CRBtide as substrate incubated for 1 hr followed by substrate addition and measured after 1 hr by TR-FRET assay relative to control; conditions: time 2.0 hrs
Sequence (P54646 whole entry, looked up): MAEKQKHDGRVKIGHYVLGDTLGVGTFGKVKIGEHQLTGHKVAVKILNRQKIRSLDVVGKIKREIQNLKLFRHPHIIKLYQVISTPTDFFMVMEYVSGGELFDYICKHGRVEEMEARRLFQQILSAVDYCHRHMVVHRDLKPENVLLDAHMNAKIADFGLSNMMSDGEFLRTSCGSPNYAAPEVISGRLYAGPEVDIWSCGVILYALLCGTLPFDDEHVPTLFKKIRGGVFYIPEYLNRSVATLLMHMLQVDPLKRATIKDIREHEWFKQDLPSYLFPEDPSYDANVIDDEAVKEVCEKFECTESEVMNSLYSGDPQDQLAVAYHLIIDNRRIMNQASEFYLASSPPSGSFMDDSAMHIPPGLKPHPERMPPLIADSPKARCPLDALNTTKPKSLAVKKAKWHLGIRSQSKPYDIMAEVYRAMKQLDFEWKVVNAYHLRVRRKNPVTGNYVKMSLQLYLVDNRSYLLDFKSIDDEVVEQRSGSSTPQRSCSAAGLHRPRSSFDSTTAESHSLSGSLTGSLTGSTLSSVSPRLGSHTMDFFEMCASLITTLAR
Below, each of the compounds is paired with its reported inhibition value.

Known results for compounds:
[[record]]
compound_string = "CCc1ccc2c(c1)NC(=O)/C2=C\\c1[nH]c(C)c(C(=O)NCCN(CC)CC)c1C"
observed_value = "90%"

[[record]]
compound_string = "CCN(CC)CCNC(=O)c1c(C)[nH]c(/C=C2\\C(=O)Nc3cc(C(C)C)ccc32)c1C"
observed_value = "69%"

[[record]]
compound_string = "Cc1[nH]c(/C=C2\\C(=O)Nc3ccc(F)cc32)c(C)c1C(=O)O"
observed_value = "85%"

[[record]]
compound_string = "CCCNC(=O)c1c(C)[nH]c(/C=C2\\C(=O)Nc3ccc(F)cc32)c1C"
observed_value = "48%"

[[record]]
compound_string = "CCN(CC)CCNC(=O)c1c(C)[nH]c(/C=C2\\C(=O)N(C)c3ccc(F)cc32)c1C"
observed_value = "17%"


Next, consider the following compound.
Field: inhibition (5'-AMP-activated protein kinase catalytic subunit alpha-2 (Homo sapiens) (UniProt P54646)). Entry: "CCN(CC)CCNC(=O)c1c(C)[nH]c(/C=C2\C(=O)Nc3cc(C)ccc32)c1C" 88%

----------
experiment: Cytotoxicity against human K562 cells assessed as reduction in cell viability at 50 uM incubated for 24 hrs by celltox-green assay relative to control; format: cell-based; details: read-out: INH
Measured Parameter: cytotoxicity at 24 h, 50 µM (%)
Express it in %; write the number only.

[[record]]
compound_string = "CCN(CC)CCNC(=O)c1c(C)[nH]c(/C=C2\\C(=O)Nc3cc(F)ccc32)c1C"
measurement_unit = "%"
observed_value = 61

[[record]]
compound_string = "CCN(CC)CCCNC(=O)c1c(C)[nH]c(/C=C2\\C(=O)Nc3ccc(F)cc32)c1C"
measurement_unit = "%"
observed_value = 63

[[record]]
compound_string = "CCN(CC)CCNC(=O)c1c(C)[nH]c(/C=C2\\C(=O)Nc3ccc(CCC#N)cc32)c1C"
measurement_unit = "%"
observed_value = 64


If you can, please state the reported cytotoxicity at 24 h, 50 µM value of "CCN(CC)CCNC(=O)c1c(C)[nH]c(/C=C2\C(=O)Nc3ccc(CCN=[N+]=[N-])cc32)c1C" . 90

If you can, please state the reported cytotoxicity at 24 h, 50 µM value of "CCN(CC)CCNC(=O)c1c(C)[nH]c(/C=C2\C(=O)Nc3ccc(CCNC(C)=O)cc32)c1C" . 5

If you can, please state the reported cytotoxicity at 24 h, 50 µM value of "Cc1[nH]c(/C=C2\C(=O)Nc3ccc(F)cc32)c(C)c1C(=O)NCCN(C)C" . 70

If you can, please state the reported cytotoxicity at 24 h, 50 µM value of "CCN(CC)CCNC(=O)c1c(C)[nH]c(/C=C2\C(=O)Nc3ccc(C#N)cc32)c1C" . 75

----------
tested on: K562; test: Cytotoxicity against human K562 cells assessed as reduction in cell viability incubated for 72 hrs by MTS assay; assay type: cell-based; settings: K562, 72 h
Measured Parameter: pEC50
The meaning of pEC50 here: minus log10 of the concentration in molar units.

Known results for molecules:
[[record]]
compound_string = "CCN(CC)CCNC(=O)c1c(C)[nH]c(/C=C2\\C(=O)Nc3ccc(CCC#N)cc32)c1C"
experimental_target = "K562"
observed_value = 4.83

[[record]]
compound_string = "CCN(CC)CCNC(=O)c1c(C)[nH]c(/C=C2\\C(=O)Nc3cc(F)ccc32)c1C"
experimental_target = "K562"
observed_value = 5.55

[[record]]
compound_string = "CCNCCNC(=O)c1c(C)[nH]c(/C=C2\\C(=O)Nc3ccc(F)cc32)c1C"
experimental_target = "K562"
observed_value = 4.87

[[record]]
compound_string = "CCN(CC)CCNC(=O)c1c(C)[nH]c(/C=C2\\C(=O)Nc3ccc(CCN=[N+]=[N-])cc32)c1C"
experimental_target = "K562"
observed_value = 5.42

[[record]]
compound_string = "Cc1[nH]c(/C=C2\\C(=O)Nc3ccc(F)cc32)c(C)c1C(=O)NCCN(C)C"
experimental_target = "K562"
observed_value = 4.90

[[record]]
compound_string = "CCN(CC)CCNC(=O)c1c(C)[nH]c(/C=C2\\C(=O)N(C)c3ccc(F)cc32)c1C"
experimental_target = "K562"
observed_value = 5.17


If you can, please state the reported pEC50 value of "CCN(CC)CCCNC(=O)c1c(C)[nH]c(/C=C2\C(=O)Nc3ccc(F)cc32)c1C" . 4.87
